- Test system: CASK
- CONDITION DETAILS: concentration: 1 μM, replicates: in singlicate; n = 1;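 note: KINOMEscan kinase panel screen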
Let's look at some compounds and their measured %Inh.
Only the number, expressed in %, is required.

-- ask Dear colleague, I am looking for the recorded %Inh of the following compound: Nc1nc(-c2ccc3c(N)n[nH]c3c2)cc(N2CCC[C@@H](C(=O)Nc3ccccc3)C2)n1.O=C(O)C(F)(F)F.O=C(O)C(F)(F)F [GSK2288359]
-- reply 5

-- ask I am curious: what %Inh value has been reported for CCn1c(-c2ccncc2)nc2cnccc21 [SB-735216] ?
-- reply 5

-- ask What value of %Inh has been reported for the following compound? COc1ccc(Nc2nccc(N3CCC(NC(=O)Nc4ccc5c(c4)OCO5)C3)n2)cc1 (stereo not shown) [GSK1379745]
-- reply 5

-- ask I would be grateful if you could share the reported %Inh for CN1CCC(n2cnc(-c3ccc(F)cc3)c2-c2ccnc(NC3CCNCC3)n2)CC1 [SB-229482] .
-- reply 20

---

- Test system: CDKL1
- CONDITION DETAILS: concentration: 1 μM, replicates: in singlicate; n = 1
ASSAY METRIC: %Inh (%)
Supply the numeric figure in %, leaving out any unit text.

MOLECULE	%Inh, %
CCc1nc(-c2cccc(C)c2)c(-c2ccnc(NC(=O)c3ccccc3)c2)s1	0

Next item in the queue.
-- ask What %Inh value was documented for this molecule, `Cn1cc(-c2ccc3c(c2)CCN3C(=O)Cc2cccc(C(F)(F)F)c2)c2c(N)ncnc21` ?
-- reply 0

---

- Tested on: AURKC
- CONDITION DETAILS: concentration: 1 μM, replicates: in singlicate; n = 1
Use 10% as the dividing line for %Inh, with the line itself on the criterion met side and lower values as criterion not met.

Look over these answered cases.
MOLECULE	TARGET	GROUP
COc1ccc(NC(=O)Nc2ccc(C)c(-c3ccc(C(=O)Nc4ccncc4)cc3)c2)cc1 [GSK1398475]	AURKC	criterion not met
C[C@H]1CC[C@@H](C(=O)Nc2ccccc2)CN1c1cc(-c2ccc3c(N)n[nH]c3c2)nc(N)n1 [GSK2283293]	AURKC	criterion met
COC(=O)c1c(-c2ccccc2)c2cc(Cl)ccc2c(=O)n1Cc1ccc(S(C)(=O)=O)cc1	AURKC	criterion not met
NC(=O)c1sc(-n2cnc3ccccc32)cc1OCc1ccccc1F [GSK1024306]	AURKC	criterion met
Cc1ccc(NC(=O)c2cccc(C#N)c2)cc1-c1ccc(C(=O)Nc2ccncc2)cc1 [GSK1398463]	AURKC	criterion not met

-- ask Quick check: does FC(F)(F)c1ccc(-c2nn3ncccc3c2-c2ccnc(Nc3cccc(C(F)(F)F)c3)n2)cc1 [GW828205] have %Inh greater than or equal to 10%?
-- reply criterion met

-- ask Answer whether %Inh of `C[C@@H]1CCN(C(=O)CO)C[C@@H]1N(C)c1ncnc2[nH]ccc12` is greater than or equal to 10%.
-- reply criterion not met

-- ask Could you verify whether the entry Nc1nccc2scc(-c3ccc4c(c3)CCN4C(=O)Cc3cc(F)ccc3F)c12 [GSK2587663] shows %Inh of no less than 10%?
-- reply criterion met

---

- System: TEC
- CONDITION DETAILS: concentration: 1 μM, replicates: in singlicate; n = 1
ASSAY METRIC: %Inh (%)
// units = %; emit number, no label

SMILES NOTATION	%Inh [%]
Clc1ccc(-c2cc(-c3c[nH]nc3-c3ccccn3)ccn2)cc1	0

-- ask State the recorded %Inh for this entry: `Cc1ccc(C)c(NC(=O)NCCNc2ccnc(Nc3ccc(F)cc3)n2)c1`
-- reply 0

-- ask For `CNc1nccc(-c2c(-c3ccc(F)cc3)ncn2CCCN2CCOCC2)n1` , what is its reported %Inh?
-- reply 33

-- ask Reported %Inh for `FC(F)(F)c1ccc(-c2cc(-c3c[nH]nc3-c3ccccn3)ccn2)cc1` : what is it?
-- reply 0

-- ask Fill in the blank: the reported %Inh of `Cn1cc(-c2ccc3c(c2)CCN3C(=O)Cc2cccc(C(F)(F)F)c2)c2c(N)ncnc21` is ____.
-- reply 1

Data origin, for the record: paper PMC5540273
